Molecular target: T1, GPR39 (G protein coupled receptor 39) (UniProt O43194 1-453, limits assumed)
T1 sequence (looked up): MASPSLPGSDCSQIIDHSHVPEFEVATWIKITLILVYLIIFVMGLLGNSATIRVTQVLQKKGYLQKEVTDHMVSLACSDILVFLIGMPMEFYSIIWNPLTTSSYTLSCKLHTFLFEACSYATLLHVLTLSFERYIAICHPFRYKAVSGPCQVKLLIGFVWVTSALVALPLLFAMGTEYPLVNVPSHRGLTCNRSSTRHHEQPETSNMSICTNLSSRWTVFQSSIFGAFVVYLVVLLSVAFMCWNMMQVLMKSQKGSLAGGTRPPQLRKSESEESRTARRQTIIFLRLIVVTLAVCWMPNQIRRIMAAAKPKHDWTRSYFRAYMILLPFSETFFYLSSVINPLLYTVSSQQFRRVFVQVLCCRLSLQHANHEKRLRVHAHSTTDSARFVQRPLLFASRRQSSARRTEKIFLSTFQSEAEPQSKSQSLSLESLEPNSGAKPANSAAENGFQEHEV
Assay: cell-based or functional assay
Square brackets hold non-standard residues; d marks the D form. Ends that are not written are not given here. * marks the point of attachment. DAMP‑2 = 1,3-bis(2-cyclohexylethyl) substitution on the histidine imidazole ring (1,3-bis(2-cyclohexylethyl)-2,3-dihydro-1H-imidazol-4-yl side chain), C1=C(*)N(CCC2CCCCC2)CN1CCC1CCCCC1; 4‑methoxybenzhydryl = (4-methoxyphenyl)(phenyl)methyl on the His imidazole, COc1ccc(C(c2ccccc2)*)cc1; 4‑hydroxybenzhydryl = (4-hydroxyphenyl)(phenyl)methyl on the His imidazole, Oc1ccc(C(c2ccccc2)*)cc1; Tyr(3-NO2) = N[C@@H](Cc1ccc(O)c([N+](=O)[O-])c1)C(=O)O; dPhe(4-Me) = Cc1ccc(C[C@@H](N)C(=O)O)cc1; Trt = c1ccc(C(c2ccccc2)(c2ccccc2)*)cc1; Benzhydryl = c1ccc(C(c2ccccc2)*)cc1; Octanoyl = CCCCCCCC(=O)*
MEASUREMENT_NAME: EC50; SRE-luciferase reporter (µM)
Write it as a number; the unit µM goes unstated.

Item under review: H(4‑methoxybenzhydryl)K(Octanoyl)[dPhe(4-Me)]Y-OH [HKFY-64] . Reported EC50; SRE-luciferase reporter?
0.007

Item under review: H(Benzhydryl)K(Octanoyl)[dPhe(4-Me)][Tyr(3-NO2)]-OH [HKFY-68] . Reported EC50; SRE-luciferase reporter?
0.013

Item under review: K(Octanoyl)H(Trt)FY [HKFY-55] . Reported EC50; SRE-luciferase reporter?
2.49

Item under review: H(4‑hydroxybenzhydryl)K(Octanoyl)[dPhe(4-Me)]Y-OH [HKFY-65] . Reported EC50; SRE-luciferase reporter?
0.003

Item under review: H(DAMP‑2)K(Octanoyl)FY [HKFY-8] . Reported EC50; SRE-luciferase reporter?
33.6

Item under review: H(Trt)K(Octanoyl)LY-OH [HKFY-51] . Reported EC50; SRE-luciferase reporter?
0.12
